test system: MS2 coat protein; experiment: apparent KD of MS2 coat protein, switch OFF state (with FMN for OFF switches, without FMN for ON switches); designed switch direction (-1 OFF switch, 1 ON switch): 1; higher = weaker reporter binding; settings: FMN input: 0 or 200 uM; Eterna round: R93 (includes R88 designs)
Below, each of the sequences is paired with its reported apparent KD of MS2 coat protein value.
Enter your answer as a number in nM; do not include the unit.

INSERT INTO assay_data (seq, measured_endpoint, recorded_result) VALUES
  ('AUAAAACAUGAGGAUCACCCAUGUAAAAAAGCAUGAGGAUAUAUAAAAAGAAAAAGAAGAAUAGAAGGCAUAAUAA [JR_SS001_Sub1223]', 'apparent KD of MS2 coat protein', 50.5);

For the record AUAAAAUAAACUGAGGAUAUCUAUAAUAAAACAUGAGGAUCACCCAUGUUUAAACAAAGAUCAUGGGAGAAGGCAGAAAAUAAAU [SS2 M 38] , what value of apparent KD of MS2 coat protein is listed for MS2 coat protein?
36.6

For GAACCACAUGAGGAUCACCCAUGUCUAAAUAUGGGAGGAUAUGCACAAAAGGAAAUAACUGCAGAAGGCCUACGAA [62%, Redo, 3] then?
135

Same for CGCGAACAUGAGGAUCACCCAUGUGAAAAACACAGAGGAUAUGUCGCAUGCGUGUAAAAGACAGAAGGCUGUCGCG [mod of top voted: #3]
84

Item: UAUAAACAUGAGGAUCACCCAUGUAGAAAUAUGGGAGGAUAUACAAAGACGAAAGUCAAAGUAGAAGGCCUAAUAA [Mat - Same State 1 - Mod - D156]
89.4

Next sequence up: AGGAAACAUGAGGAUCACCCAUGUAAAAAUAUGGGAGGAUAUACGAAGACAAAAAAAAAAGUAGAAGGCCUAAAAG [Garnet 12]
266

---

Overview of reported apparent KD of MS2 coat protein across a group of sequences:
system: MS2 coat protein; assay: apparent KD of MS2 coat protein; designed switch direction (-1 OFF switch, 1 ON switch): 1; higher = weaker reporter binding; settings: input ligand: none
Give just the numeric value; nM need not be written.

The examples below pair each entry with its known result.
INSERT INTO results (seq, recorded_result) VALUES
  ('GAAAAGACAUGAGGAUCACCCAUGUGGUAGACAGCUAGACGCAAGGAUAUGCAUGUGAUUCUCAUGCAGAAGGUGCUUCUAGGU [Eternabot solution 12] (Eterna round: R96, puzzle: Same State NG 3)', 68.6),
  ('GCGGUAACUCACAUGAGGAUCACCCAUGUUCCGGAAACGGCACAGGAUAUCUGUCCGAAAAGGUCAGAGAAGGGUGAAAUCCGC [Fiskers NG3ss - 91] (Eterna round: R96, puzzle: Same State NG 3)', 115),
  ('GGAUGAUAGACAGGAUAUUGAAUGUAAAUAGGACAAGAAGGGUCAAUGAUAUAAACGACCAGUUACAUGAGGAUCACCCAUGUU [JR_SSNG1_Sub023] (Eterna round: R96, puzzle: Same State NG 1)', 38.9);

Would you kindly look at the next entry?
Requested read-out: apparent KD of MS2 coat protein. Entry: UCAGUCAUGUAAGGAUAUGCAGCCGAAACGGCUGCAGAAGGUACUAUAAUUACAUGAGGAUCACCCAUGUUAUAAAAUAAAUAU [Mat - Same State NG 1 - JL mod - D65] (Eterna round: R96, puzzle: Same State NG 1)
76.6
